# test-target: human H4 receptor (Homo sapiens, UniProt Q9H3N8)
# Construct: expressed in transfected cells
# Sequence (Q9H3N8 whole entry): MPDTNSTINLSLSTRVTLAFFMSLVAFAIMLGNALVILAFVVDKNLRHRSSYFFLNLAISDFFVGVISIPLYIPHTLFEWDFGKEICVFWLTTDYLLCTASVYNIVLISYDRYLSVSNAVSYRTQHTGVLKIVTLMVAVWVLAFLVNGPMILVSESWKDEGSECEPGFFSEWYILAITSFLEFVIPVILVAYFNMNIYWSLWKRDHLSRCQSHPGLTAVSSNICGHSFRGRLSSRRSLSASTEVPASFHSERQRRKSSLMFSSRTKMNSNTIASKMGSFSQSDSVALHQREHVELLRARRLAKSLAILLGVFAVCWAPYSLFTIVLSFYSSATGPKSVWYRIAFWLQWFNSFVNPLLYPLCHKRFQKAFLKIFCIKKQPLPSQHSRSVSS
# assay-notes: [3H]Histamine binding on membranes of CHO cells stably expressing human H4 receptor
endpoint-name: Ki or IC50 activity class

>  <compound>
CN1CCC(NC(c2ccccc2)c2nc3ccccc3[nH]2)CC1 (stereo not drawn) [Example 39]

>  <observed-value>
< 300 nM

$$$$
>  <compound>
Cc1ccccc1C(OC1CCN(C)CC1)c1nc2ccccc2[nH]1 (stereo not drawn) [Example 193]

>  <observed-value>
< 300 nM

$$$$
>  <compound>
CCCCOc1cccc(C(NC2CCN(C)CC2)c2nc3ccccc3s2)c1 (stereo not drawn) [Example 91]

>  <observed-value>
< 30 nM

$$$$
>  <compound>
CN1CCC(OC(c2cccc(C#CCCCNC(=N)N)c2)c2nc3ccccc3[nH]2)CC1 (stereo not drawn) [Example 358]

>  <observed-value>
< 30 nM

$$$$
>  <compound>
CN1CCC(OC(c2cccc(OCc3ccncc3)c2)c2nc3ccccc3s2)CC1 (stereo not drawn) [Example 265]

>  <observed-value>
< 300 nM

$$$$
>  <compound>
CN1CCC(OC(c2cccc(SCC(=O)NCCN)c2)c2nc3ccccc3[nH]2)CC1 (stereo not drawn) [Example 436]

>  <observed-value>
< 30 nM

$$$$
>  <compound>
Cc1ccc(F)c(C(OC2CCN(C)CC2)c2nc3ccccc3[nH]2)c1 (stereo not drawn) [Example 490]

>  <observed-value>
< 300 nM

$$$$
>  <compound>
CN1CCC(OC(c2ccc(F)cc2)c2nc3ccccc3s2)CC1 (stereo not drawn) [Example 3]

>  <observed-value>
< 300 nM

$$$$
>  <compound>
CN1CCC(OC(c2ccc(N)cc2)c2nc3ccccc3[nH]2)CC1 (stereo not drawn) [Example 455]

>  <observed-value>
< 30 nM

$$$$
>  <compound>
COc1ccc(O)c(C(OC2CCN(C)CC2)c2nc3ccccc3[nH]2)c1 (stereo not drawn) [Example 573]

>  <observed-value>
< 300 nM

$$$$
>  <compound>
CN1CCC(OC(c2cccc(OCCCCCN3CCN(C(=O)OC(C)(C)C)CC3)c2)c2nc3ccccc3s2)CC1 (stereo not drawn) [Example 362]

>  <observed-value>
< 1000 nM

$$$$
>  <compound>
CN1CCC(OC(c2cccc(OS(=O)(=O)C(F)(F)F)c2)c2nc3ccccc3s2)CC1 (stereo not drawn) [Example 71]

>  <observed-value>
< 300 nM

$$$$
>  <compound>
CN1CCC(OC(c2cccc(OCCCN3CCN(C(=O)OC(C)(C)C)CC3)c2)c2nc3ccccc3s2)CC1 (stereo not drawn) [Example 351]

>  <observed-value>
< 1000 nM

$$$$
>  <compound>
CN1CCC(OC(c2ccc3ccsc3c2)c2nc3ccccc3[nH]2)CC1 (stereo not drawn) [Example 556]

>  <observed-value>
< 30 nM

$$$$
>  <compound>
CCOc1ccc(O)c(C(OC2CCN(C)CC2)c2nc3ccccc3[nH]2)c1 (stereo not drawn) [Example 576]

>  <observed-value>
< 30 nM

$$$$
>  <compound>
CCOCCn1c(C(OC2CCN(C)CC2)c2cccc(C#CCCCCN)c2)nc2ccccc21 (stereo not drawn) [Example 500]

>  <observed-value>
< 300 nM

$$$$
>  <compound>
CNC(=O)CSc1cccc(C(OC2CCN(C)CC2)c2nc3ccccc3s2)c1 (stereo not drawn) [Example 259]

>  <observed-value>
< 300 nM

$$$$
>  <compound>
CN1CCC(OC(c2cccc(C#CCCCO)c2)c2nc3ccccc3[nH]2)CC1 (stereo not drawn) [Example 192]

>  <observed-value>
< 300 nM

$$$$

====

# test-target: human H4 receptor (Homo sapiens)
# Construct: expressed in transfected cells
# assay-notes: [3H]Histamine binding on membranes of CHO cells stably expressing human H4 receptor
endpoint-name: Ki or IC50 activity class

>  <compound>
C=CCCCOc1cccc(C(NC2CCN(C)CC2)c2nc3ccccc3[nH]2)c1 (stereo not shown) [Example 135]

>  <observed-value>
< 300 nM

$$$$
>  <compound>
CN1CCC(OC(c2cccc(OCCCF)c2)c2nc3ccccc3[nH]2)CC1 (stereo not shown) [Example 475]

>  <observed-value>
< 300 nM

$$$$
>  <compound>
CN1CCC(OC(c2cccc(OCc3ccccc3)c2)c2nc3ccccc3s2)CC1 (stereo not shown) [Example 45]

>  <observed-value>
< 30 nM

$$$$
>  <compound>
CC(C)NC(=S)NCCSc1cccc(C(OC2CCN(C)CC2)c2nc3ccccc3[nH]2)c1 (stereo not shown) [Example 347]

>  <observed-value>
< 1000 nM

$$$$

====

Structures can show the parent of a compound that is named as a salt.
Could you please mark condition met for values of melting point below 100 °C and condition not met for values at or above it?

>  <compound>
CN1CCC(OC(c2nc3ccccc3[nH]2)c2c(F)cc(Cl)cc2F)CC1 (centres unmarked)

>  <assigned-class>
condition not met

$$$$
>  <compound>
COc1cc(F)cc(C(OC2CCN(C)CC2)c2nc3ccccc3s2)c1 (centres unmarked) (as salt: oxalate)

>  <assigned-class>
condition not met

$$$$
>  <compound>
CN1CCC(OC(c2cccc(C#CCCCN)c2)c2nc3ccccc3[nH]2)CC1 (single isomer, unassigned) [Example 565]

>  <assigned-class>
condition met

$$$$
>  <compound>
CN1CCC(OC(c2cccc(-c3ccc4c(c3)OCO4)c2)c2nc3ccccc3[nH]2)CC1 (centres unmarked)

>  <assigned-class>
condition met

$$$$
>  <compound>
CN1CCC(OC(c2nc3ccccc3[nH]2)c2cc(-c3ccccc3)ccc2O)CC1 (centres unmarked)

>  <assigned-class>
condition not met

$$$$
>  <compound>
CN1CCC(OC(c2cccc(I)c2)c2nc3ccccc3[nH]2)CC1 (centres unmarked)

>  <assigned-class>
condition not met

$$$$
>  <compound>
Cc1ccc(C(OC2CCN(C)CC2)c2nc3ccccc3o2)c(F)c1 (centres unmarked) (as salt: oxalate)

>  <assigned-class>
condition not met

$$$$
>  <compound>
CN1CCC(OC(c2cccc(-c3ccc(Cl)c(Cl)c3)c2)c2nc3ccccc3[nH]2)CC1 (centres unmarked) (as salt: oxalate)

>  <assigned-class>
condition not met

$$$$
>  <compound>
CN1CCC(OC(c2ccc(F)cc2)c2nc3ccccc3[nH]2)CC1 (centres unmarked)

>  <assigned-class>
condition not met

$$$$
>  <compound>
CN1CCC(OC(c2cccc(Cl)c2)c2nc3ccccc3[nH]2)CC1 (centres unmarked) (as salt: oxalate)

>  <assigned-class>
condition not met

$$$$
>  <compound>
CN1CCC(NC(c2cccc(-c3ccccc3)c2)c2nc3ccccc3s2)CC1 (centres unmarked) (as salt: oxalate)

>  <assigned-class>
condition not met

$$$$
>  <compound>
CN1CCC(OC(c2cccc(Oc3cccnc3)c2)c2nc3ccccc3s2)CC1 (centres unmarked) (as salt: oxalate)

>  <assigned-class>
condition met

$$$$
>  <compound>
CN1CCC(COC(c2cccc(Br)c2)c2nc3ccccc3[nH]2)C1 (centres unmarked)

>  <assigned-class>
condition met

$$$$
>  <compound>
CN1CCC(OC(c2ccccc2)c2nc3cc(F)ccc3[nH]2)CC1 (centres unmarked)

>  <assigned-class>
condition not met

$$$$
>  <compound>
CN1CCC(OC(c2nc3ccccc3[nH]2)c2cccc3cc[nH]c23)CC1 (centres unmarked)

>  <assigned-class>
condition not met

$$$$
>  <compound>
CCSc1cc(C(OC2CCN(C)CC2)c2nc3ccccc3[nH]2)ccc1C (centres unmarked) (as salt: oxalate)

>  <assigned-class>
condition not met

$$$$
>  <compound>
CN1CCC(OC(c2cccc(Br)c2)c2nc3ccccc3[nH]2)CC1 (single isomer, unassigned)

>  <assigned-class>
condition met

$$$$
>  <compound>
CN1CCC(OC(c2cccc(CCCCCCNC(=N)NC(=O)OC(C)(C)C)c2)c2nc3ccccc3[nH]2)CC1 (centres unmarked)

>  <assigned-class>
condition met

$$$$
>  <compound>
CN1CCC(OC(c2cccc(SCCN)c2)c2nc3ccccc3s2)CC1 (centres unmarked) (as salt: oxalate)

>  <assigned-class>
condition met

$$$$
>  <compound>
CN1CCC(OC(c2cccc(OCCCCCNCCCCN)c2)c2nc3ccccc3[nH]2)CC1 (centres unmarked) (as salt: oxalate)

>  <assigned-class>
condition not met

$$$$
>  <compound>
Cc1ccc(C(OC2CCN(C)CC2)c2nc3ccccc3s2)cc1 (centres unmarked) (as salt: oxalate)

>  <assigned-class>
condition not met

$$$$
>  <compound>
CCCOc1ccc(O)c(C(OC2CCN(C)CC2)c2nc3ccccc3[nH]2)c1 (centres unmarked)

>  <assigned-class>
condition not met

$$$$
>  <compound>
CN1CCC(NC(c2cccc(OCc3cc(F)ccc3F)c2)c2nc3ccccc3[nH]2)CC1 (centres unmarked) (as salt: oxalate)

>  <assigned-class>
condition not met

$$$$
>  <compound>
CN1CCC(OC(c2nc3ccccc3[nH]2)c2c(O)cccc2Cl)CC1 (centres unmarked)

>  <assigned-class>
condition not met

$$$$
>  <compound>
CN1CCC(NC(c2cccnc2)c2nc3ccccc3s2)CC1 (centres unmarked)

>  <assigned-class>
condition not met

$$$$
>  <compound>
CN1CCC(OC(c2ccc3occc3c2)c2nc3ccccc3s2)CC1 (centres unmarked) (as salt: oxalate)

>  <assigned-class>
condition not met

$$$$
>  <compound>
CN1CCC(NC(c2cccc([N+](=O)[O-])c2)c2nc3ccccc3[nH]2)CC1 (centres unmarked)

>  <assigned-class>
condition not met

$$$$
>  <compound>
CC(=O)c1cccc(-c2cccc(C(OC3CCN(C)CC3)c3nc4ccccc4[nH]3)c2)c1 (centres unmarked) (as salt: oxalate)

>  <assigned-class>
condition not met

$$$$

Where do these numbers come from? They come from patent US8802664B2.
